target: Hematopoietic prostaglandin D synthase (Homo sapiens, UniProt O60760); assay: Inhibition of recombinant human HPGDS
Sequence (O60760 whole entry): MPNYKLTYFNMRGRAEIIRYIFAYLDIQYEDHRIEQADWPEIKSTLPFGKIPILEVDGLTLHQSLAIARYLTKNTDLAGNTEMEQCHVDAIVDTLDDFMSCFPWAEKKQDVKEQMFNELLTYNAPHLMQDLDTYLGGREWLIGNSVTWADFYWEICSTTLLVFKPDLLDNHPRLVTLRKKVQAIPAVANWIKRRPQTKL
Recorded Endpoint: IC50 (nM)
Kindly answer with a numeric value in nM, unit omitted.

[Q] Using the record for `CON(C)C(=O)c1[nH]c(C)c(-c2nc3cc(C(=O)c4ccccc4)ccc3[nH]2)c1C` , state its measured IC50.
[A] 23

* * *

target: Hematopoietic prostaglandin D synthase (Homo sapiens); assay: Inhibition of recombinant human HPGDS using [14C]-PGH2 as substrate preincubated for 1 min in presence of MgCl2 followed by substrate addition and measured after 45 mins by radioactive imaging analysis
Recorded Endpoint: IC50 (nM)
The figure you give is taken to be in nM; do not add the unit.

[Q] Quick one: give measured IC50 for `O=C(Nc1ccc(N2CCC(C(=O)N3CCOCC3)CC2)cc1)c1cnc(Oc2ccccc2)nc1`
[A] 71
